tested on: Plasmodium berghei; assay: Luciferase/luciferin-expressing antifolate-resistant parasites were used to infect a culture of HepG2 cells that were pre-incubated with compounds. Infected hepatocytes emit light due to the luciferase reaction. Assay results are presented as the percent inhibition of light emission compared to control. […]; format: functional; conditions: sporozoite, HEPG2TOX_HILL_SLOPE 8.06, HEPG2TOX_R_SQUARED 0.791, read-out: LUCIFERASE INFECTION ASSAY - IC50
pIC50: −log10 of the molar value.
Value kind: pIC50

pIC50 measured on CCc1ccc(-c2noc(CN3CCN(C(=O)c4ccccc4)CC3)n2)cc1 = < 5.00

* * *

tested on: Plasmodium berghei; experiment: Luciferase/luciferin-expressing antifolate-resistant parasites were used to infect a culture of HepG2 cells that were pre-incubated with compounds. Infected hepatocytes emit light due to the luciferase reaction. Assay results are presented as the percent inhibition of light emission compared to control. […]; assay type: functional; conditions: sporozoite, read-out: LUCIFERASE INFECTION ASSAY - IC90
IC90 listing for selected compounds.
Express the result in µM but write the number alone.

Would you please look over these solved cases?
| Compound | Readout unit | IC90 |
| --- | --- | --- |
| Clc1cc2c(c3ncccc13)OCN(Cc1ccco1)C2 | µM | 1.44 |
| CCCCNC(=O)c1c(NC(=O)c2ccc(C(F)(F)F)cc2)nc2ccccn12 | µM | 0.365 |
| O=C(Nc1ccc(SC(F)(F)F)cc1)Nc1ccc(-n2ccc(C(F)(F)F)n2)cc1 | µM | 2.69 |

Sure, the documented IC90 for Cc1c(C(=O)Nc2nc(CN3CC(C)CC(C)C3)cs2)[nH]c2c1C(=O)CC(C)(C)C2 (stereo not given) is 9.99

Ref: ChEMBL document CHEMBL4483862
